Tested on: human saliva derived microcosm biofilm
assay details: Lactic acid release of biofilm grown in MCM human derived saliva biofilm system (LDH-NAD-PMS-MTT enzyme assay)
Assay type: cell-based, lactic acid producing bacteria (human derived saliva)
assay context: reduction by more than 40% vs control considered effective
endpoint: effectiveness for reducing the lactic-acid release of bacteria in a biofilm (in words)

Consider the worked cases shown below.
[
  {
    "smiles input": "CC(C)C[C@H](N)C(=O)O",
    "target": "human saliva derived microcosm biofilm",
    "endpoint result": "useful"
  },
  {
    "smiles input": "NCCCC[C@H](N)C(=O)O",
    "target": "human saliva derived microcosm biofilm",
    "endpoint result": "useful"
  },
  {
    "smiles input": "N[C@@H](Cc1ccccc1)C(=O)O",
    "target": "human saliva derived microcosm biofilm",
    "endpoint result": "useful"
  },
  {
    "smiles input": "CC(C)[C@H](N)C(=O)O",
    "target": "human saliva derived microcosm biofilm",
    "endpoint result": "useful"
  }
]

Now look at this one.
IN: Dear colleague, I am looking for the recorded effectiveness for reducing the lactic-acid release of bacteria in a biofilm (in words) of the following molecule: `CC[C@H](C)[C@H](N)C(=O)O`
OUT: useful

###

Test system: human saliva derived microcosm biofilm
assay details: Lactic acid release of biofilm grown in MCM human derived saliva biofilm system (LDH-NAD-PMS-MTT enzyme assay)
Type: cell-based, lactic acid producing bacteria (human derived saliva)
assay context: reduction by more than 40% vs control considered effective
endpoint: effectiveness for reducing the lactic-acid release of bacteria in a biofilm (in words)

[
  {
    "molecule": "N[C@@H](CC(=O)O)C(=O)O [Aspartic acid, reference compound]",
    "endpoint result": "not effective"
  },
  {
    "molecule": "N[C@@H](CO)C(=O)O",
    "endpoint result": "useful"
  },
  {
    "molecule": "N[C@@H](Cc1c[nH]cn1)C(=O)O [Histidine, reference compound]",
    "endpoint result": "not effective"
  },
  {
    "molecule": "NCC(=O)O",
    "endpoint result": "useful"
  },
  {
    "molecule": "N=C(N)NCCC[C@H](N)C(=O)O [Arginine, reference compound]",
    "endpoint result": "not effective"
  }
]

Now look at this one.
IN: Recorded effectiveness for reducing the lactic-acid release of bacteria in a biofilm (in words) for NC(=O)CC[C@H](N)C(=O)O [glutamine, reference compound] with human saliva derived microcosm biofilm, please?
OUT: not effective

###

Test system: human saliva derived microcosm biofilm
assay details: Lactic acid release of biofilm grown in MCM human derived saliva biofilm system (LDH-NAD-PMS-MTT enzyme assay)
Assay type: cell-based, lactic acid producing bacteria (human derived saliva)
assay context: reduction by more than 40% vs control considered effective
endpoint: effectiveness for reducing the lactic-acid release of bacteria in a biofilm (in words)

[
  {
    "compound": "C[C@@H](O)[C@H](N)C(=O)O [Threonine]",
    "endpoint result": "useful"
  },
  {
    "compound": "CSCC[C@H](N)C(=O)O [Methionine]",
    "endpoint result": "useful"
  },
  {
    "compound": "N[C@@H](Cc1c[nH]c2ccccc12)C(=O)O [Tryptophan]",
    "endpoint result": "useful"
  }
]

This collection of values is drawn from patent US20210121380A1.
